# measuredOn: menin-MLL interaction (Homo sapiens)
# Sequence (O00255 1-610): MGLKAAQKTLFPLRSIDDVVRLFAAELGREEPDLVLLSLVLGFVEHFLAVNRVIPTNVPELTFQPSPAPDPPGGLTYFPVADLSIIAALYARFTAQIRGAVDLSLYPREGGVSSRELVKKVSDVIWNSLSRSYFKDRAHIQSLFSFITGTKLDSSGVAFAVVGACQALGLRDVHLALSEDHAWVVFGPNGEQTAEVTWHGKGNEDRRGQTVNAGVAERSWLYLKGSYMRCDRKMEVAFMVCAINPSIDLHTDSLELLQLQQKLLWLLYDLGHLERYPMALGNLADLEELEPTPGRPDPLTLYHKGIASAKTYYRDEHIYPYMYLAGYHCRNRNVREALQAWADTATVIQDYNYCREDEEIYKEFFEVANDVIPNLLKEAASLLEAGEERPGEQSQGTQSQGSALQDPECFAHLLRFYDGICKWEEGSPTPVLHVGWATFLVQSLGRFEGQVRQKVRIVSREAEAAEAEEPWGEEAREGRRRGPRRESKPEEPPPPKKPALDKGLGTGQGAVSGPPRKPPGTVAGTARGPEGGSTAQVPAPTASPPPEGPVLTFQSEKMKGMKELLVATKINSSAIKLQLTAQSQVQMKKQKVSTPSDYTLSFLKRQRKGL
# assayRemarks: biochemical
recordedEndpoint: IC50 (µM)
Numeric answer only, unit µM assumed.

For orientation, consider the following solved cases.
[[record]]
compound = "CS(=O)(=O)c1ccc(OC[C@@H](O)CN2CCC(C(O)(c3ccccc3)c3ccccc3)CC2)cc1"
measuredon = "menin-MLL interaction (Homo sapiens)"
datavalue = 21

[[record]]
compound = "O[C@H](COc1ccc(Cl)cc1)CN1CCC(C(O)(c2ccccc2)c2ccccc2)CC1"
measuredon = "menin-MLL interaction (Homo sapiens)"
datavalue = 40

[[record]]
compound = "CCOC(c1ccccc1)(c1ccccc1)C1CCN(CCCOc2ccc(C#N)cc2)CC1"
measuredon = "menin-MLL interaction (Homo sapiens)"
datavalue = 5.3


Data request: Item: CC(CCN1CCC(C(O)(c2ccccc2)c2ccccc2)CC1)Oc1ccc([N+](=O)[O-])cc1Cl (centres unmarked) Test system: menin-MLL interaction (Homo sapiens) Read-out: IC50 Value: ?
Data returned: 55

Data request: Hello, I am looking for reported IC50 with menin-MLL interaction (Homo sapiens) for COC(=O)c1ccc(OCCCN2CCC(C(O)(c3ccccc3)c3ccccc3)CC2)cc1 . Could you help?
Data returned: 86

Data request: Tell me reported IC50 for COc1cccc(C(O)(C2CCCC2)C2CCN(CCCOc3ccc(C#N)cc3)CC2)c1 (centres unmarked) , tested with menin-MLL interaction (Homo sapiens).
Data returned: 1.1

Data request: Return IC50 measured with menin-MLL interaction (Homo sapiens) given this compound: Cc1ccc(OC[C@@H](O)CN2CCC(C(O)(c3ccccc3)c3ccccc3)CC2)cc1
Data returned: 100

Data request: Item: OC(c1ccccc1)(c1ccccc1)C1CCN(CCCOc2ccncc2)CC1 Test system: menin-MLL interaction (Homo sapiens) Read-out: IC50 Value: ?;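 also: fluorescence polarization competition assay, inhibitors lower the fluorescence anisotropy signal, IC50 taken from this drop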
Data returned: 25
